- assay.details: Cell viability assay
- Assay type: cell-based
- assay.context: human, HFF cells
readout.label: CC50 at 7 days

Guide cases for CC50 at 7 days, answers given:
Q) Indicate the recorded CC50 at 7 days value for this compound: Cc1ccc(CNC(=O)c2nc(-c3ccccc3)c3cccnc3c2O)cc1 [Compound 16a]
A) > 100 µM

Q) Indicate the recorded CC50 at 7 days value for this compound: Nc1nc(O)c2ncn(COC(CO)CO)c2n1 [Compound 1, ganciclovir, reference compound]
A) > 50 µM

Q) Indicate the recorded CC50 at 7 days value for this compound: O=C(NCc1ccc(Cl)c(Cl)c1)c1nc(Cl)c2cccnc2c1O [Compound 15b]
A) > 50 µM

Q) Indicate the recorded CC50 at 7 days value for this compound: O=C(NCc1ccc(F)cc1)c1nc(Cl)c2cccnc2c1O [Compound 15a]
A) 60 µM

Q) Indicate the recorded CC50 at 7 days value for this compound: COc1cccc(-c2nc(C(=O)NCc3ccc(C)cc3)c(O)c3ncccc23)c1 [Compound 16b]
A) > 60 µM

Could you now look at the following compound, please?
Q) Indicate the recorded CC50 at 7 days value for this compound: Cc1ccc(CNC(=O)c2nc(Cl)c3cccnc3c2O)cc1 [Compound 15d]
A) > 50 µM
